Data origin, for the record: patent US12528791B2

Molecular target: THR-β/RXR-α (Homo sapiens, UniProt P10828)
Sequence (P10828 202-461 limits assumed): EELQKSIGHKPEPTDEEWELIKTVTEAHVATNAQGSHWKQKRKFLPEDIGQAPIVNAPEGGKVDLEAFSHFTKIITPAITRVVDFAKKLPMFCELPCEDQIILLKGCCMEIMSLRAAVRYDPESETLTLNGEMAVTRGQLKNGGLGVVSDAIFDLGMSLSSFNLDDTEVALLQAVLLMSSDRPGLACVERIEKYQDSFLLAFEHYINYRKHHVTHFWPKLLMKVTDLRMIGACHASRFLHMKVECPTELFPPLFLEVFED
Sequence (P19793 225-462 partner limits assumed): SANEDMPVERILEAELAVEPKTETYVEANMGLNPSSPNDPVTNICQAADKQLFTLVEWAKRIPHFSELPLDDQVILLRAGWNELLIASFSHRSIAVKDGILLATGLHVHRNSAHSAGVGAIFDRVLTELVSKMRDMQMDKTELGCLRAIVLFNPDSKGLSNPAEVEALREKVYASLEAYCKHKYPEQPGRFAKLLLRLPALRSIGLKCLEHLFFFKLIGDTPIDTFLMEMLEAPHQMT
Sequence (Q15596 679-703 partner limits assumed): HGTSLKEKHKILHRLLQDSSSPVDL
Type: biochemical
Conditions: RXR heterodimer assay; compound activity normalized to T3 for THR-β/RXR-α and THR-α/RXR-α
assay.metric: THRβ-Selectivity

smiles.data: Cc1n[nH]c2ncc(Oc3c(Cl)cc(-n4nc(C#N)c(=O)[nH]c4=O)cc3Cl)cc12
assay.metric: THRβ-Selectivity
observed: 9.7
//
smiles.data: N#Cc1nn(-c2cc(Cl)c(Oc3ccc4ncn(C5(C(F)F)CC5)c4c3)c(Cl)c2)c(=O)[nH]c1=O
assay.metric: THRβ-Selectivity
observed: 9.0
//
smiles.data: CC(C)(C)n1cnc2ccc(Oc3c(Cl)cc(-n4nc(C#N)c(=O)[nH]c4=O)cc3Cl)cc21
assay.metric: THRβ-Selectivity
observed: 8.4
//
smiles.data: N#Cc1nn(-c2cc(Cl)c(Oc3ccc4nccc(C5CC5)c4c3)c(Cl)c2)c(=O)[nH]c1=O
assay.metric: THRβ-Selectivity
observed: 11.9
//
smiles.data: N#Cc1nn(-c2cc(Cl)c(Oc3ccc4nc(C5CC5)ccc4c3)c(Cl)c2)c(=O)[nH]c1=O
assay.metric: THRβ-Selectivity
observed: 3.3
//
smiles.data: CC1(n2cnc3ccc(Oc4c(Cl)cc(-n5nc(C#N)c(=O)[nH]c5=O)cc4Cl)cc32)CC1
assay.metric: THRβ-Selectivity
observed: 10.1
//
smiles.data: Cc1ccnc2ccc(Oc3c(Cl)cc(NC(=O)c4noc(=O)[nH]4)cc3Cl)cc12
assay.metric: THRβ-Selectivity
observed: 5.7
//
smiles.data: CCc1c[nH]c2ccc(Oc3c(Cl)cc(-n4nc(C#N)c(=O)[nH]c4=O)cc3Cl)cc12
assay.metric: THRβ-Selectivity
observed: 8.4
//
smiles.data: O=C(Nc1cc(Cl)c(Oc2ccc3ncn(C4CC4)c3c2)c(Cl)c1)c1noc(=O)[nH]1
assay.metric: THRβ-Selectivity
observed: 5.9
//
smiles.data: O=C(Nc1cc(Cl)c(Oc2ccc3ncn(C4(C(F)(F)F)CC4)c3c2)c(Cl)c1)c1noc(=O)[nH]1
assay.metric: THRβ-Selectivity
observed: 14.7
//
smiles.data: Cc1n[nH]c2ccc(Oc3c(Cl)cc(-n4nc(C#N)c(=O)[nH]c4=O)cc3Cl)cc12
assay.metric: THRβ-Selectivity
observed: 8.5
//
smiles.data: N#Cc1nn(-c2cc(Cl)c(Oc3ccc4nc5n(c4c3)CCCO5)c(Cl)c2)c(=O)[nH]c1=O
assay.metric: THRβ-Selectivity
observed: 11.6
//
smiles.data: O=C(Nc1cc(Cl)c(Oc2ccc3nc(C4CC4)ccc3c2)c(Cl)c1)c1noc(=O)[nH]1
assay.metric: THRβ-Selectivity
observed: 4.8
//
smiles.data: CCc1ccnc2ccc(Oc3c(Cl)cc(NC(=O)c4noc(=O)[nH]4)cc3Cl)cc12
assay.metric: THRβ-Selectivity
observed: 7.1
//
smiles.data: CC(C)n1cnc2ccc(Oc3c(Cl)cc(-n4nc(C#N)c(=O)[nH]c4=O)cc3Cl)cc21
assay.metric: THRβ-Selectivity
observed: 10.9
//
smiles.data: CCc1n[nH]c2ccc(Oc3c(Cl)cc(-c4n[nH]c(=O)[nH]c4=O)cc3Cl)cc12
assay.metric: THRβ-Selectivity
observed: 3.6
//
smiles.data: COc1n[nH]c2ccc(Oc3c(Cl)cc(-n4nc(C#N)c(=O)[nH]c4=O)cc3Cl)cc12
assay.metric: THRβ-Selectivity
observed: 10.3
//
smiles.data: Cc1n[nH]c2ccc(Oc3c(Cl)cc(NC(=O)c4noc(=O)[nH]4)cc3Cl)cc12
assay.metric: THRβ-Selectivity
observed: 6.6
//
smiles.data: CC(C)n1c(=O)[nH]c2ccc(Oc3c(Cl)cc(NC(=O)c4noc(=O)[nH]4)cc3Cl)cc21
assay.metric: THRβ-Selectivity
observed: 9.9
//
smiles.data: CC1(n2cnc3ccc(Oc4c(Cl)cc(NC(=O)c5noc(=O)[nH]5)cc4Cl)cc32)CC1
assay.metric: THRβ-Selectivity
observed: 11.8
//
smiles.data: CCc1ccnc2ccc(Oc3c(Cl)cc(-n4nc(C#N)c(=O)[nH]c4=O)cc3Cl)cc12
assay.metric: THRβ-Selectivity
observed: 10.2
//
smiles.data: Cc1ccnc2ccc(Oc3c(Cl)cc(-n4nc(C#N)c(=O)[nH]c4=O)cc3Cl)cc12
assay.metric: THRβ-Selectivity
observed: 15.4
//
smiles.data: N#Cc1nn(-c2cc(Cl)c(Oc3ccc4ncn(C5CC5)c4c3)c(Cl)c2)c(=O)[nH]c1=O
assay.metric: THRβ-Selectivity
observed: 5.7
//
smiles.data: Cc1n[nH]c2ccc(Oc3c(Cl)cc(-c4n[nH]c(=O)[nH]c4=O)cc3Cl)cc12
assay.metric: THRβ-Selectivity
observed: 3.1
//
smiles.data: N#Cc1nn(-c2cc(Cl)c(Oc3ccc4ncccc4c3)c(Cl)c2)c(=O)[nH]c1=O
assay.metric: THRβ-Selectivity
observed: 5.5
//
smiles.data: Cn1cnc2ccc(Oc3c(Cl)cc(-n4nc(C#N)c(=O)[nH]c4=O)cc3Cl)cc21
assay.metric: THRβ-Selectivity
observed: 5.6
//
smiles.data: Cn1cnc2cnc(Oc3c(Cl)cc(NC(=O)c4noc(=O)[nH]4)cc3Cl)cc21
assay.metric: THRβ-Selectivity
observed: 10.4
//
smiles.data: O=C(Nc1cc(Cl)c(Oc2ccc3ncn(C4(C(F)F)CC4)c3c2)c(Cl)c1)c1noc(=O)[nH]1
assay.metric: THRβ-Selectivity
observed: 14.3
//
smiles.data: CC(C)n1cnc2ccc(Oc3c(Cl)cc(NC(=O)c4noc(=O)[nH]4)cc3Cl)cc21
assay.metric: THRβ-Selectivity
observed: 11.3
//
smiles.data: Cc1n[nH]c2ncc(Oc3c(Cl)cc(NC(=O)c4noc(=O)[nH]4)cc3Cl)cc12
assay.metric: THRβ-Selectivity
observed: 5.6
//
smiles.data: O=C(Nc1cc(Cl)c(Oc2ccc3nc4n(c3c2)CCCO4)c(Cl)c1)c1noc(=O)[nH]1
assay.metric: THRβ-Selectivity
observed: 5.1
